Origin of measurements: patent US20090264425A1

- tested_target: HIV-1 reverse transcriptase (Human immunodeficiency virus type 1 group M subtype B, UniProt P04585)
- Construct: purified recombinant HIV-1 reverse transcriptase (RT, EC, 2.7.7.49)
- assay_overview: Inhibition of HIV-1 reverse transcriptase enzyme ([3H]-Flashplate enzyme assay, 384-well)
- condition_description: purified recombinant HIV-1 RT expressed in Escherichia Coli; 5% final DMSO
pIC50: −log10 of the molar value.
Binary call on pIC50: MET from 8 upward, NOT MET beneath that.

- compound: "N#Cc1cc(Cl)cc(Oc2cc(Cl)ccc2OCC(=O)N2CCCc3cc(S(N)(=O)=O)ccc32)c1 [Example 1]"
  class_name: "NOT MET"
- compound: "N#Cc1cc(Cl)cc(Oc2cc(Cl)ccc2OCC(=O)N2CCc3ccc(S(=O)(=O)N4CCOCC4)cc3C2)c1 [Example 16]"
  class_name: "NOT MET"
- compound: "Cc1cnccc1NC(=O)COc1cc(Cl)ccc1Oc1cc(Cl)cc(C#N)c1 [Example 50]"
  class_name: "MET"
- compound: "Cc1cc(CN(C)C(=O)COc2cc(Cl)ccc2Oc2cc(Cl)cc(C#N)c2)on1 [Example 25]"
  class_name: "NOT MET"
- compound: "Cc1nc(S(N)(=O)=O)ccc1NC(=O)COc1ccc(Cl)cc1Sc1cc(Cl)cc(C#N)c1 [Example 46]"
  class_name: "NOT MET"
